Every entry's value here was drawn from ChEMBL document CHEMBL4014269.

Test system: Enterococcus faecium
experiment_notes: Antibacterial activity against vancomycin-resistant Enterococcus faecium isolate MB 2 after 24 hrs by microdilution assay
Assay type: functional
measurement_parameters: isolate MB 2, 24 h

{"columns": ["chemical_structure", "MIC"],
 "data": [
  ["CC(C)c1cc2c(c(O)c1O)[C@@]13CCCC(C)(C)[C@@H]1[C@H](OC3=O)C2=O", "186 µM"],
  ["C[C@]12C[C@H](c3ccoc3)OC(=O)[C@]1(O)[C@H](O)C[C@@]13COC(=O)C1=CCC[C@@H]32", "171 µM"],
  ["CC(=O)O[C@H](C[C@@]1(C)[C@H](C)[C@H](O[C@@H]2O[C@H](CO)[C@@H](O)C(=O)[C@H]2O)C[C@@]23COC(=O)C2=CCC[C@@H]31)c1ccoc1", "234 µM"],
  ["C[C@]12C[C@H](c3ccoc3)OC(=O)[C@@H]1[C@H](O)C[C@]13COC(=O)C1=CC=C[C@@H]32", "359 µM"],
  ["C[C@@]12/C=C/C=C\\C3=C(COC3=O)C[C@@H](O)[C@H]1C(=O)O[C@@H](c1ccoc1)C2", "89.9 µM"],
  ["C[C@]12C[C@H](c3ccoc3)OC(=O)[C@@]1(O)[C@H](O)C[C@@]13COC(=O)C1=CCC[C@@H]32", "342 µM"],
  ["O=C1OCC=C1[C@H]1CCc2ccc3c(c2C1)[C@H](c1ccoc1)OC3=O", "381 µM"]
]}

====

Tested on: Staphylococcus aureus
experiment_notes: Antibacterial activity against methicillin-sensitive Staphylococcus aureus isolate MB 21 after 24 hrs by microdilution assay
Type: functional
measurement_parameters: isolate MB 21, 24 h

{"columns": ["chemical_structure", "MIC"],
 "data": [
  ["O=C1OCC=C1[C@H]1CCc2ccc3c(c2C1)[C@H](c1ccoc1)OC3=O", "> 128 µg/mL"],
  ["CC(=O)O[C@H](C[C@@]1(C)[C@H](C)[C@H](O[C@@H]2O[C@H](CO)[C@@H](O)C(=O)[C@H]2O)C[C@@]23COC(=O)C2=CCC[C@@H]31)c1ccoc1", "> 128 µg/mL"],
  ["C[C@]12C[C@H](c3ccoc3)OC(=O)[C@@]1(O)[C@H](O)C[C@@]13COC(=O)C1=CCC[C@@H]32", "> 128 µg/mL"],
  ["C[C@]12C[C@H](c3ccoc3)OC(=O)[C@]1(O)[C@H](O)C[C@@]13COC(=O)C1=CCC[C@@H]32", "> 128 µg/mL"],
  ["CC(C)c1cc2c(c(O)c1O)[C@@]13CCCC(C)(C)[C@@H]1[C@H](OC3=O)C2=O", "> 128 µg/mL"],
  ["C[C@@]12/C=C/C=C\\C3=C(COC3=O)C[C@@H](O)[C@H]1C(=O)O[C@@H](c1ccoc1)C2", "> 128 µg/mL"],
  ["C[C@]12C[C@H](c3ccoc3)OC(=O)[C@@H]1[C@H](O)C[C@]13COC(=O)C1=CC=C[C@@H]32", "> 128 µg/mL"]
]}

====

Test system: Enterococcus faecalis
experiment_notes: Antibacterial activity against Enterococcus faecalis isolate MB 3 after 24 hrs by microdilution assay
Type: functional
measurement_parameters: isolate MB 3, 24 h
Overview of recorded MIC for various molecules
readout: MIC

{"columns": ["chemical_structure", "observed_result"],
 "data": [
  ["C[C@]12C[C@H](c3ccoc3)OC(=O)[C@@H]1[C@H](O)C[C@]13COC(=O)C1=CC=C[C@@H]32", "> 128 µg/mL"],
  ["O=C1OCC=C1[C@H]1CCc2ccc3c(c2C1)[C@H](c1ccoc1)OC3=O", "> 128 µg/mL"],
  ["C[C@@]12/C=C/C=C\\C3=C(COC3=O)C[C@@H](O)[C@H]1C(=O)O[C@@H](c1ccoc1)C2", "89.9 µM"]
]}
